biological target: c-Src SH2; experiment: SH2 binding enrichment of the phosphorylated peptide, bacterial display (enrichment ratio); higher = better substrate or ligand; peptides without Tyr show the background;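 note: peptide library displayed on the E. coli surface as eCPX fusions, selected cells deep-sequenced, score is each peptide's frequency after selection divided by its frequency in the input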
Each record gets a class by SH2 binding enrichment: low: < 0.5; intermediate: ≥ 0.5 and < 0.6; high: ≥ 0.6

> print(dat)
                  sequence.content  system.tested  discrete.label
1  ECKHLYSRKEG [PTPN11_Y263_L261H]      c-Src SH2            high

Into which category would you place NDEDIYKGLPD [VAV3_Y141] ?
intermediate

Band of SVTCTYCPALN [TP53_Y126_S127C] ?
high

Where would TLLERYGMTEI [ACSF3_Y355] land among the classes by reported SH2 binding enrichment?
low

Each sequence maps to one class by SH2 binding enrichment. Which class for TESNNYIYTTL [FAM83B_Y637_K640T] ?
intermediate

GET /class?item= LIHTKYPQLLP [AHCY_Y143]
low

Class for FTTIHYNFMCN [TP53_Y234_C229Y_YF] ?
high

Categorize the following entry: SKKSTYRALLD [GANC_Y43_Q44R]
low

The entry to classify is MEFAKYGSLRG [RET_Y809_V804M_YF] ; which class holds it?
low

Which of the defined bands does the recorded SH2 binding enrichment of QDRTFYESVRT [SPEN_Y633_YF] sit within?
high

For this sequence, which bin applies? FLQTDYTSQVS [FRMPD1_Y846]
intermediate
